Origin of measurements: ChEMBL document CHEMBL4513216

# Tested on: Plasmodium berghei
# Assay summary: Screen against P. berghei liver stage (PbLuc), transformed with Luciferase, at 10uM
# Assay type: functional, HepG2
# Condition: tested at 10 uM
Hit rate of the full screen: of about 69,000 compounds, about 8,600 (12%) showed an effect of 50% or more. Many of the other results were omitted from the sample, so strong results are more common in it than they were.
Measured property: INHIBITION (%)
Give bare numbers, in %.

Some compounds with recorded INHIBITION:
Compound: CCOC(=O)[C@@H]1CN2CCNC[C@@H]2[C@H]1c1ccccc1
INHIBITION (%): 46.4
//
Compound: COCCC1COC2(CCN(C(=O)c3ccncc3)CC2)C1 (stereo unspecified)
INHIBITION (%): 74.2
//
Compound: O=S(=O)(c1ccccc1)N1CCN(CCn2ccnc2)CC1
INHIBITION (%): -26.6
//
Compound: CCN(C)C1COC2(CCN(C(=O)c3ccc4[nH]ccc4c3)CC2)C1 (stereo unspecified)
INHIBITION (%): -12.2
//
Compound: CCOC(=O)[C@@H]1[C@H]2CN(C(=O)OC)CCN2C[C@H]1c1ccccc1
INHIBITION (%): -43.6

Take each entry in turn and give its INHIBITION.
1. C=C(C)CN1CCN(Cc2cnc(-c3ccc(OC)cc3)nc2)CC1
2. Cc1ccccc1CN1CCN(C(=O)c2cnc(C3CC3)[nH]c2=O)CC1
3. CC(=O)N1CCN(C(=O)CCCc2nc(C(C)C)no2)CC1
4. COCCC1COC2(CCN(C(C)=O)CC2)C1 (stereo unspecified)

1. 44.8
2. 27.5
3. -8.61
4. 20.1

Take each entry in turn and give its INHIBITION.
1. CN(C)C(=O)C1CCCN(C(=O)c2ccccc2-n2cc(CN)cn2)C1 (stereo unspecified)
2. COc1ccc(C)cc1NC(=O)c1c(C)cn(C)c1CC(=O)O
3. O=C(CCN1CCc2[nH]nc(C(F)(F)F)c2C1)Nc1ccccc1
4. COc1ccc(C)cc1NS(=O)(=O)c1ccc(CCNC(C)=O)s1
5. Cc1nc(C)n(CC2CCCN(Cc3cn4c(C)cccc4n3)C2)n1 (stereo unspecified)
6. CC(C)c1noc(CCC(=O)N2CCSCC2)n1
7. CCc1ccc(S(=O)(=O)N2CCN(CCn3ccnc3)CC2)cc1
8. OCCn1cc(CN2CCN(CCOc3cccc(F)c3)CC2)cn1

1. 50.8
2. -0.473
3. 61.1
4. -1.04
5. 5.03
6. 51.8
7. 51.2
8. 33.95

Take each entry in turn and give its INHIBITION.
1. O=C1CCc2cc(NC(=O)C3CCCN3c3nccs3)ccc2N1 (stereo unspecified)
2. [O-][S+](CCN1CCc2[nH]nc(C(F)(F)F)c2C1)c1ccccc1 (stereo unspecified)
3. COc1c(C(=O)NCC2CCCO2)nnn1Cc1ccccc1 (stereo unspecified)

24.3165
36.3
-14.7

Take each entry in turn and give its INHIBITION.
1. CC(=O)N(Cc1noc(C)n1)C1CCN(Cc2ccc(C#N)cc2)C1 (stereo unspecified)
2. Cc1cccc(-n2ncc(C(=O)NCC3CCS(=O)(=O)C3)c2C)c1 (stereo unspecified)
3. Cc1cccc(N(C)Cc2cc(=O)n3oc(C)cc3n2)c1
4. N#Cc1c(N)nc2c(c1-c1c[nH]nc1C1CCCCC1)COCC2
5. CCN(Cc1cscn1)CC1(C)Cc2c(N)nc(N)nc2O1 (stereo unspecified)
6. Cc1cccn2cc(C[S+]([O-])Cc3noc(C(C)C)n3)nc12 (stereo unspecified)

1: 27.4; 2: -33.9; 3: 43.5; 4: 11.5; 5: 33.85; 6: -9.51
